target: BRAF (Homo sapiens)
Sequence (P15056 whole entry): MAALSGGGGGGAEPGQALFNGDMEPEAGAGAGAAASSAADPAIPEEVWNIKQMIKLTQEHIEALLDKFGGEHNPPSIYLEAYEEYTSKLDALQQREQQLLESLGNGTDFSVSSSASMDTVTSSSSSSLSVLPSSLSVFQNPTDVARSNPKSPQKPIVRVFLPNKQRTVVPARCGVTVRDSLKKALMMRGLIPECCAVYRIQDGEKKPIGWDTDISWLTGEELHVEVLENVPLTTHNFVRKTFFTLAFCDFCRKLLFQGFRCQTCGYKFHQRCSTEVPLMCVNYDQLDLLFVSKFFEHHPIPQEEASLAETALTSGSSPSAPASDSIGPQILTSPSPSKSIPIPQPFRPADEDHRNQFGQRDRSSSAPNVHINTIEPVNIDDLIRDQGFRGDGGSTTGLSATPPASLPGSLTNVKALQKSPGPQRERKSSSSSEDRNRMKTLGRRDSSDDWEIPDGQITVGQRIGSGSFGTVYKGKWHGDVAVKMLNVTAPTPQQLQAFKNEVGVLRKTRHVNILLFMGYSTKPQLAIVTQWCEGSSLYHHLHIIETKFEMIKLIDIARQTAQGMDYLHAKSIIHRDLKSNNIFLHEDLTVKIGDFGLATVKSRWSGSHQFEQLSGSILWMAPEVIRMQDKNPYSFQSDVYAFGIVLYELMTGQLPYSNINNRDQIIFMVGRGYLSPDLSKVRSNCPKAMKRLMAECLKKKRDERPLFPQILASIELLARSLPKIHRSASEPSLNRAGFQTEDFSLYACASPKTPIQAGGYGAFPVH
pIC50: −log10 of the molar value.

- COMPOUND SMILES: "N#Cc1c(Oc2ccc(F)c(NC(=O)Cc3cccc(C(F)(F)F)c3)c2)ccc2nc(NC(=O)C3CC3)sc12"
  pIC50: 9.15
